Reported apparent KD of MS2 coat protein is given for each of the following sequences.
System: MS2 coat protein
ASSAY_NOTES: apparent KD of MS2 coat protein; designed switch direction (-1 OFF switch, 1 ON switch): -1; higher = weaker reporter binding
TEST_CONDITIONS: input ligand: FMN 200 uM
READOUT: apparent KD of MS2 coat protein (nM)

CHAIN	RESULT_UNIT	VALUE_REPORTED
GAGAAACAUGAGGAUCACCCAUGUGAGGAUAUGAGCACGCCGGUGACGGUGAUAAGAAUCAGAAGGCACAUUAA [Mat - Exclusion 1 - JL Mod - D34] (Eterna round: R97, puzzle: Exclusion 1)	nM	95.7
CCAAGCUUAUUCAUUAACAACAUGAGGAUCACCCAUGUGUAGGCAAUUAUGUUUGGGCUCUUUAGUGCUCGUCUUAU [Sensor-V1 #22] (Eterna round: R97, puzzle: Sensor, turn-off variant 1)	nM	14.7
UAUGGUUAAGUCAGGAUAUGCACGAAGAGAACAAAGCAGAAGGGACAUGAGGAUCACCCAUGUAAAGUCGUGUU [Ex4 #76] (Eterna round: R97, puzzle: Brourd's mod of Exclusion 4)	nM	28.4

----------
System: MS2 coat protein
ASSAY_NOTES: apparent KD of MS2 coat protein; higher = weaker reporter binding
TEST_CONDITIONS: Eterna round: R107; input ligand: theophylline 2 mM
READOUT: apparent KD of MS2 coat protein (nM)

CHAIN	VALUE_REPORTED
GGGCGCGAGACGGCCGCCACUACACAUGAGGAUCACCCAUGUAUGGCAACAUGAGGAUCUGCCAUUAGGACCGGGUCAGGGCCCA	41.8
CCAUGGCUAGGAAGGAGCGCAUACUUCACAUGAGGAUCACCCAUGUCGAGACGUGAGUCAGUGCAGGUAGGUCGCCUAGCCAUGG [Same State - Arginine B (Freestyle 30)]	24.8
UGUAUGUGAUCUGAUACCAGCUUAAUAACAUGAGCAUCAGCCAUGUGGAGCGGAAACGCUAGCCCUUGGCAGCAGAUCGCAUACU [Denovo 11 #StaticStem #AlternativeMS2]	13.2
GUCGCUGAGGGAAGGAGCGUGAAGACAUGAGGAUCACCCAUGUAGAGGCGCCGAAGGCGUUCGCAGGUAGGUCGCCCUCAGUGAA [#1 Same State - Arginine B Attempt #25 (HarryS)]	16.1
AACAUGAGGAUCACCCAUGUGUCCUCGAAACGAGGACCGGUACGGCCGCCACUCGAAAGGUGUUGACGAAAAGUCAGCACCAAAA [Mat - Exclusion - Trytophan A - D15]	412
CGAGUAAGAACAAUCGAAUAACGGUUUUCGCGAGGACCGGUACGGCCGCCACUCGUGUGAUAUAACACAUGAGGAUCACCCAUGU [3'end-1]	34.9
AACAUGAGGAUCACCCAUGUGUCCUCGAAACGAGGACCGGUACGGCCGCCACUCGAAAUAAGCUGUUGACGAAAAGUCAGCAGCA [Mat - Exclusion - Trytophan A - D20]	345
UAGACGGCCGGAAGGAGCGGUACAUGAGGAUCACCCAUGUAUCUCUGGGCAUCCGUAGAGUGCCAGGUAGGUCGCCGGUUGCGGG [XArg-B22]	11.5
UAUGCACAUGAGGAUCACCCAUGUAUGGAAGGAGCGGUGAAUAAACCAGGUAGGUCGCCAUUGUGAGGGUCAUCUAUGUAAUCGU [Exclusion - Arginine A (Freestyle 4)]	133
GGACUAACCUGAAGGAGCGACACGCACAAAGUGCAAAUUCCUCCACACGAGGAUCACCCGUGUCAGGUAGGUCGCAGGUUAGUCG [ArgBX 28]	23.7
GAACAUAAGGAUAGUAUAAUAACUACAGAAGGAGCGUCAGGAAGGACAGGUAGGUCGCUGGAAGACAUGAGGAUCACCCAUGUUU [#03 Same State - Arginine A]	21.1
GUAUCUAUGUGAAAUAGAUAUAUAACUGAAGGAGCGUCAUUAAGGACAGGUAGGUCGCAGAGCACCUGAGGAUCACCCAGGUAGG [Arg A SS s1]	31.6
AUACAUGAGGAUCACCCAUGUCAUACAGAAGGAGCGUCACAUAAGACAGGUAGGUCGCUGAUAAAUGGAUUAUAGUUUAUGAUUA [JR_SSArginiA_Sub016]	20.3
AUCGUACCUGAUGAUACCAGCAUGUGCUCGUAACAUGAGGAUCACCCAUGUGAUCAGUGAUGCCCUUGGCAGCAUGAUCGGUACA [Same State - Theophylline B (Freestyle 16)]	14.1
GUAUACAUGAGGAUCACCCAUGUACCAGAAGGAGCGCUGGAAACAGCAGGUAGGUCGCUGGUAGGUCCUCUAUCUAGACGUUCUA [EAA NP+V+V2 #5]	195
UGUCAGCGAAAGUUGACAUGUCUUACCGGUCGAGGACCGGUACGGCCGCCACUCGAUCACUCGCACAUGAGGAUCACCCAUGUUG [SS Tryp A #21]	23.8

----------
Test system: MS2 coat protein
ASSAY_NOTES: apparent KD of MS2 coat protein; designed switch direction (-1 OFF switch, 1 ON switch): 1; higher = weaker reporter binding
TEST_CONDITIONS: Eterna round: R95; input ligand: FMN 200 uM
Short version: apparent KD of MS2 coat protein at least 40 nM is fulfilled, less is not fulfilled.

CHAIN	TESTED_SYSTEM	LABEL
GAGGAUGAUUUACAGGAUAUAUAGAAGAUGACAUGAGGAUCACCCAUGUAAGAGAAAGGAGGGAGAUAGAAGGGUAAGGGAUGUG [JR_SS2_Sub40] (puzzle: Same State 2)	MS2 coat protein	not fulfilled
UAGAGAGGAAGCGAGGAUAUCGUGGGAGGGACAUGAGGAUCACCCAUGUAUGAUGUUGAGAGGAACGAGAAGGCGCAGGAAAGUA [JR_SS2_Sub077] (puzzle: Same State 2)	MS2 coat protein	fulfilled
CGUCCAGCCUGAGCUGGACAAAAGCAUGUACAUGAGGAUCACCCAUGUUCAUGUACAAGCUUUUUGCUCGUCUUAGA [salish99_208a_r3_072] (puzzle: Sensor for hsa-mir-208a)	MS2 coat protein	fulfilled
AGGAAGGAGACUGAGGAUAUCGUUGAGAGGACAUGAGGAUCACCCAUGUGUAUAGGAUUGGAGAACGAGAAGGCAGAGGAGUGGG [JR_SS2_Sub047] (puzzle: Same State 2)	MS2 coat protein	fulfilled
UGCGGAUAACAGUAGGAUAUGGUCAACGCCACAUGAGGAUCACCCAUGUCGUACCGGCACCUGGACUAGAAGGACUGCCUCCCGC [Esleberi] (puzzle: Same State 2)	MS2 coat protein	not fulfilled
AUUUAACAAGCUUUUUGCUCGUCUUAUAAACAUGAGGAUCACCCAUGUAAUAGCGUGAGAGUAAUUUAUUAAAUAAU [JMF 92] (puzzle: Sensor for hsa-mir-208a)	MS2 coat protein	not fulfilled
ACAAGCUUUUUGCUCAUCUUAUGUCCGAAACAUGAGGAUCACCCAUGUAUAGAUUAUGUGUUGUUUUUGAUACAAGA [JR_SHM208A_Sub064] (puzzle: Sensor for hsa-mir-208a)	MS2 coat protein	not fulfilled
UUGCGCUGUCGAGAGGAUAUGCGGUGUUGGACAUGAGGAUCACCCAUGUUAGCGAUAGCAUUACGGUAGAAGGCUCUUCAGCUGC [salish99_ss2_r3_096] (puzzle: Same State 2)	MS2 coat protein	not fulfilled
AACAAUUAACAUGAGGAUCACCCAUGUAUUACUUCGUGUUUUUGCUCGUCUUAUGUUAGGUUCGAUAGAGCUUAACA [Improved] (puzzle: Sensor for hsa-mir-208a version 2)	MS2 coat protein	fulfilled
CGAGCCGGCACUGAGGAUAUUCAUAUUUAAACAUGAGGAUCACCCAUGUAGGCCAGAAGGCCUUGGGAGAAGGCAGGUCGGCUCC [salish99_ss2_r3_080] (puzzle: Same State 2)	MS2 coat protein	not fulfilled

----------
System: K4 kissing-loop RNA reporter;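 also: bound reporter read as fluorescence of individual clusters on recovered sequencing chips by microscopy, with normalized cluster intensities fitted with a binding model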
ASSAY_NOTES: apparent KD of K4 kissing-loop reporter; higher = weaker reporter binding
TEST_CONDITIONS: Eterna round: R107; input ligand: tryptophan 2.4 mM
READOUT: apparent KD of K4 kissing-loop reporter (µM)

CHAIN	READOUT	VALUE_REPORTED
UGUAAGCGCGUAGAUACCAGCAAACAAAGAGUGAUGUUCAGAUUAAGGAAAAGAAAGUAAUGCCCUUGGCAGCUAAUCAUAAGCG [Theophylline B Exclusion; Euphoria Solution]	apparent KD of K4 kissing-loop reporter	0.319
AAGCAGUCUCUUGUAGUCAUCGAAGAUGAACGAGGACCGGUACGGCCGCCACUCGGAGUGAUGUUCCGAAGACUGCAAAAUAAAA [MatMod 17 - Jieux - Exclusion - Tryptophan A]	apparent KD of K4 kissing-loop reporter	0.18
AACCACUCGUUACAUCACUAUCGAGUGGAACGAGGACCGGUACGGCCGCCACUCGGUAACAAGCAGUGAUGUUGCUUGUAAGAAU [KL-SSTryp-A (BrourdMod)2 #dotplot2 strengthened]	apparent KD of K4 kissing-loop reporter	0.164
UUUUUGGAGAAUUAUAGUGAUGUUAUGAAGGAGGAUAUCUGGAGAUGGAGAAGGCCUAGUGGCUCAGCCCUCGAGGGUGGGUGGG [ExFMNA.aC]	apparent KD of K4 kissing-loop reporter	0.354
AGGUCCGAGCCCGCAAGGGCUCGGACCUGUUAGGAUAUGACGUUAUUCAGAAGGGAUGGGUGGAGUGAUGUUCCACCCGCGAGGG [#2 Same State - FMN A Attempt #12 (HarryS)]	apparent KD of K4 kissing-loop reporter	0.149
CUCGAGUGAUGUUCGAUUAUUUAUACAGAUACCAGUGAAUUUUAACACCCUUGGCAGCUGGUUGUAUCUUUGUUUUUUACACAAG [JR_ExcTheophyA_Sub006]	apparent KD of K4 kissing-loop reporter	0.107
UGUGUGUAGGGAAGGAGCGCCGAGAGAAGAAGAAAAGAGUGAUGUUCAAGACAAUAAAGACGGCAGGUAGGUCGCCCUGUGUGUG [Default title]	apparent KD of K4 kissing-loop reporter	0.267
ACACUAUCGUCAUAGACGGUAGUGAAAAGUGAGGAUAUGAGUGAUGUUAGAAGGCACUAAGACUGUAUCGAAUAGAUACAGUCAA [FmnA 4 #K4BetweenAptamer #OpenEnded]	apparent KD of K4 kissing-loop reporter	0.349
AGUUCUUGCCGAAGGAGCGAGGCAGAGUGAUGUUCUGCAAAGGUCGAAAGACCUUAACUGCCUCAGGUAGGUCGCGGCAUGAACA [KL-XARG-B23]	apparent KD of K4 kissing-loop reporter	0.58
GUCCCAGUGAUGUUGGUAGGCGAGCGGGAUACCAGCGAAGACUCACGCCCUUGGCAGCCCACAUAUCCCACGUAGGGAUUAGCUC [Same State - Theophylline A (Freestyle 20)]	apparent KD of K4 kissing-loop reporter	0.351

This collection of values is drawn from the supplement of paper PMC9170038.
